TARGET_OR_SYSTEM: rat mGlu2 receptor (Rattus norvegicus (Rat))
MEASUREMENT_NOTES: mGlu2 in vitro GIRK thallium flux assay
Format: cell-based
STUDY_CONDITIONS: NAM; 2.5 min compound incubation; EC80 glutamate; HEK-293 GIRK cells; read-out: mGlu2 EC50 (μM) (2.5 min)
TEST_READOUT: EC50

Which EC50 reading was recorded for the molecule Cc1cc(-c2cccc(C3CC(=O)Nc4cc(NC(=O)Oc5ccccc5)ccc4N3)c2)cc(C)n1 (centres unmarked) ? > 10 µM

Next molecule: O=C(O)c1cccc(-c2cccc(-c3cn(-c4ccccc4)c(-c4ccccc4)n3)c2)c1 > 10 µM

Next molecule: O=C(O)c1cc(-c2ccc(-c3nc(-c4ccc(C(F)(F)F)nc4)cc(C(F)(F)F)n3)cc2)ccc1F 1.42 µM

Next molecule: O=C(NO)c1cc(-c2cccc(-c3nc(-c4ccoc4)cc(C(F)(F)F)n3)c2)ccc1F > 10 µM

Next molecule: Fc1ccc(C#Cc2cccc(-c3nc(-c4ccc(C(F)(F)F)nc4)cc(C(F)(F)F)n3)c2)cc1 > 30 µM

Next molecule: O=C(O)c1cc(F)cc(-c2cccc(-c3csc(-c4ccccc4)n3)c2)c1 0.64 µM

Next molecule: O=C(O)c1cc(-c2ccccc2-c2csc(-c3ccccc3)n2)ccc1F > 10 µM

Next molecule: N#Cc1cc(C2=Nc3ccc(Br)cc3NC(=O)C2)ccn1 0.04 µM

###

For each of the compounds below, state its EC50.
TARGET_OR_SYSTEM: rat mGlu2 receptor (Rattus norvegicus (Rat), UniProt P31421)
Sequence (P31421 19-872): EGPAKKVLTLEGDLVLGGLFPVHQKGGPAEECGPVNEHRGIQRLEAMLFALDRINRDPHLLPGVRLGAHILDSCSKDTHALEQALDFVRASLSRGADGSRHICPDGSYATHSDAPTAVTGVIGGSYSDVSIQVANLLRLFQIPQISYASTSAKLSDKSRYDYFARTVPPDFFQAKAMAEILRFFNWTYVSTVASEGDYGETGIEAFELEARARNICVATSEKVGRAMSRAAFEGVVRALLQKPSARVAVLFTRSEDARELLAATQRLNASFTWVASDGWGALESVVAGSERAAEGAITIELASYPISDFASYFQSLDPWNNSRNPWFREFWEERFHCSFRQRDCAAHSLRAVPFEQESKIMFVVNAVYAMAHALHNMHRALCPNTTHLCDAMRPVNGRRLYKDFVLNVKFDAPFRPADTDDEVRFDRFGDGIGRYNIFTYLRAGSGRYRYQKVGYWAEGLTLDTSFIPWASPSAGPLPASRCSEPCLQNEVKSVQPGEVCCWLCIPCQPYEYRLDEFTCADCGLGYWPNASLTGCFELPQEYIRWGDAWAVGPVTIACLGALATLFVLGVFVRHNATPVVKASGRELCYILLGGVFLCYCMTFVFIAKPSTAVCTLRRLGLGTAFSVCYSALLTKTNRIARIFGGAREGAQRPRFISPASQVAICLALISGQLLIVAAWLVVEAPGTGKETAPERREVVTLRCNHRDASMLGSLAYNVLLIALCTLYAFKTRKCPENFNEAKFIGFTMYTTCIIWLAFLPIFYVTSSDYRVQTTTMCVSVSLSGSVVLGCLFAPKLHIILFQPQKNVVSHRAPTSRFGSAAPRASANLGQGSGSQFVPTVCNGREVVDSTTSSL
MEASUREMENT_NOTES: mGlu2 in vitro GIRK thallium flux assay
Format: cell-based
STUDY_CONDITIONS: read-out: mGlu2 EC50 (μM) (60 min); NAM; 60 min compound incubation; EC80 glutamate; HEK-293 GIRK cells

Which EC50 reading was recorded for the compound O=C1CC(c2cccc(-c3cccnc3)c2)=Nc2ccc(Br)cc2N1 [Example 179] ? 0.02 µM

Next compound: O=C(O)c1ccc(F)c(-c2cccc(-c3nc(-c4ccc(C(F)(F)F)nc4)cc(C(F)(F)F)n3)c2)c1 [Example 79] 0.09 µM

Next compound: O=C(O)c1cc(-c2cccc(-c3nc(-c4ccoc4)cc(C(F)(F)F)n3)c2)ccc1F [Example 94] 0.14 µM

Next compound: O=C1CC(c2ccnc(Cl)c2)=Nc2ccc(-c3ccc(Br)nc3)cc2N1 [Example 199] 4.27 µM

Next compound: CONC(=O)c1cc(-c2cccc(-c3nc(-c4ccoc4)cc(C(F)(F)F)n3)c2)ccc1F [Example 132] 7.1 µM

Next compound: O=C(O)c1cc(-c2cccc(Oc3nc(-c4ccco4)cc(C(F)(F)F)n3)c2)ccc1F [Example 128] > 30 µM

Next compound: O=C(O)c1cc(F)cc(-c2cccc(-c3nc(-c4ccccc4)cc(C(F)(F)F)n3)c2)c1 [Example 104] 0.24 µM

Next compound: Cc1cc2c(cc1C(F)(F)F)NC(=O)CC(c1cccc(Oc3cc(F)cc(F)c3)c1)=N2 [Example 146] > 10 µM

Next compound: O=C(O)c1cc(-c2cccc(-c3cnc(-c4ccccc4)s3)c2)ccc1F [Example 3] > 10 µM

Next compound: N#Cc1cc(C2=Nc3ccc(I)cc3NC(=O)C2)ccn1 [Example 183] 0.03 µM

Next compound: O=C(O)c1ccc(-c2cccc(-c3nc(-c4ccc(C(F)(F)F)nc4)cc(C(F)(F)F)n3)c2)s1 [Example 80] 0.13 µM

Next compound: O=C(O)c1cccc(-c2cccc(-c3nc(-c4ccccc4)nn3-c3ccccc3)c2)c1 [Example 66] > 10 µM

Next compound: O=C(O)c1cc(-c2cccc(-c3nc(-c4ccc(C(F)(F)F)nc4)cc(C(F)(F)F)n3)c2)ccc1Cl [Example 70] 0.2 µM

Next compound: O=C(O)c1ccccc1-c1cccc(-c2csc(-c3ccccc3)n2)c1 [Example 25] > 10 µM

###

TARGET_OR_SYSTEM: rat mGlu2 receptor (Rattus norvegicus (Rat), UniProt P31421)
MEASUREMENT_NOTES: mGlu2 in vitro GIRK thallium flux assay
Format: cell-based
STUDY_CONDITIONS: NAM; 2.5 min compound incubation; EC80 glutamate; HEK-293 GIRK cells; read-out: mGlu2 EC50 (μM) (2.5 min)
TEST_READOUT: EC50 (µM)
Unit µM implied. Number only.

Which EC50 reading was recorded for the compound O=C(O)c1cc(F)cc(-c2cccc(-c3nsc(-c4ccoc4)n3)c2)c1 ? 0.17

Next compound: O=C(O)c1cc(-c2cccc(-c3nc(-c4ccccc4F)cc(C(F)(F)F)n3)c2)ccc1F 1.21

Next compound: COc1ccc(-c2cc(C(F)(F)F)nc(-c3cccc(-c4ccc(F)c(C(=O)O)c4)c3)n2)cc1 1.07

Next compound: O=C(O)c1cc(-c2cccc(Nc3nc(-c4ccco4)cc(C(F)(F)F)n3)c2)ccc1F 5.33

Next compound: O=C1CC(c2ccnc(Cl)c2)=Nc2ccc(C(F)(F)F)cc2N1 0.29

Next compound: O=C(O)c1cc(-c2cccc(-c3csc(-c4ccco4)n3)c2)ccc1F 2.4

Next compound: CSc1ccc(-c2cc(C(F)(F)F)nc(-c3cccc(-c4ccc(F)c(C(=O)O)c4)c3)n2)cc1 4.69

Next compound: N#Cc1cc(C2=Nc3ccc(F)cc3NC(=O)C2)ccn1 0.88

Next compound: O=Cc1cc(-c2cccc(-c3csc(-c4ccccc4)n3)c2)ccc1F 3.67

Next compound: COc1ccc(C(=O)O)cc1-c1cccc(-c2nc(-c3ccc(C(F)(F)F)nc3)cc(C(F)(F)F)n2)c1 0.96

###

TARGET_OR_SYSTEM: rat mGlu2 receptor (Rattus norvegicus (Rat), UniProt P31421)
MEASUREMENT_NOTES: mGlu2 in vitro GIRK thallium flux assay
Assay type: cell-based
STUDY_CONDITIONS: NAM; 2.5 min compound incubation; EC80 glutamate; HEK-293 GIRK cells; read-out: mGlu2 EC50 (μM) (2.5 min)
TEST_READOUT: log10 EC50 (log10 of the value in µM)
Log scale reminder: EC50 in µM, then log10 taken.

Which log10 EC50 reading was recorded for the compound Cc1cc2c(cc1C(F)(F)F)NC(=O)CC(c1cccc(Sc3ncccn3)c1)N2 (single isomer, unassigned) [Example 166B] ? 0.93

Next compound: Cc1cc2c(cc1C(F)(F)F)NC(=O)CC(c1cccc(Sc3ncccn3)c1)=N2 -0.06

Next compound: O=C1CC(c2ccnc(Cl)c2)=Nc2ccc(-c3ccc(Br)nc3)cc2N1 0.23

Next compound: O=C(O)c1cccc(-c2cccc(-c3cc(-c4ccccc4)sn3)c2)c1 -0.17

Next compound: O=C(O)c1cc(-c2cccc(-c3csc(-c4ccccc4)n3)c2)ccc1Cl -0.24

Next compound: Cc1cc2c(cc1C(F)(F)F)NC(=O)CC(c1cccc(Oc3ccccn3)c1)N2 (racemic) 0.64

Next compound: O=C(O)c1cc(-c2cccc(-c3nc(-c4ccco4)cc(C(F)(F)F)n3)c2)ccc1F -0.17

Next compound: Cc1cc2c(cc1C(F)(F)F)NC(=O)CC(c1cccc(S(=O)(=O)c3ncccn3)c1)=N2 -0.35

Next compound: O=C(O)c1cc(-c2cccc(-c3nccc(-c4ccoc4)n3)c2)ccc1F -0.59

Next compound: CC(C)(C)c1ccc(-c2cc(C(F)(F)F)nc(-c3cccc(-c4ccc(F)c(C(=O)O)c4)c3)n2)cc1 0.73

Next compound: O=C(O)c1cccc(-c2cccc(-c3csc(-c4ccc(Cl)nc4)n3)c2)c1 0.58

Next compound: O=C(O)c1ccc(-c2ccc(-c3nc(-c4ccc(C(F)(F)F)nc4)cc(C(F)(F)F)n3)cc2)cc1 0.58

Next compound: COc1ccc(-c2cc(C(F)(F)F)nc(-c3cccc(-c4ccc(F)c(C(=O)O)c4)c3)n2)cn1 0.16

Next compound: COc1ccc(-c2ccc3c(c2)NC(=O)CC(c2ccnc(Cl)c2)=N3)cc1OC 0.58

Next compound: O=C(O)c1cc(F)cc(-c2cccc(-c3nc(-c4ccoc4)cc(C(F)(F)F)n3)c2)c1 -0.40

Next compound: Cc1ccc(-c2cc(C(F)(F)F)nc(-c3cccc(-c4ccc(F)c(C(=O)O)c4)c3)n2)s1 0.50

###

TARGET_OR_SYSTEM: rat mGlu2 receptor (Rattus norvegicus (Rat))
MEASUREMENT_NOTES: mGlu2 in vitro GIRK thallium flux assay
Assay type: cell-based
STUDY_CONDITIONS: NAM; 2.5 min compound incubation; EC80 glutamate; HEK-293 GIRK cells; read-out: mGlu2 EC50 (μM) (2.5 min)
TEST_READOUT: log10(EC50) (log10 of the value in µM)
Log scale reminder: EC50 in µM, then log10 taken.

Which log10(EC50) reading was recorded for the molecule O=C(O)c1ccc(F)c(-c2cccc(-c3nsc(-c4ccccc4)n3)c2)c1 [Example 41] ? -0.05

Next molecule: Cc1cc(-c2ccoc2)nc(-c2cccc(-c3ccc(F)c(C(=O)O)c3)c2)n1 [Example 117] -1.10

Next molecule: O=C(O)c1cccc(-c2cccc(-c3nsc(-c4ccccc4)n3)c2)c1 [Example 39] -0.49

Next molecule: O=C(O)c1cccc(-c2cccc(-c3nc(-c4ccoc4)cc(C(F)(F)F)n3)c2)c1 [Example 115] -0.55

Next molecule: COc1ccc(-c2nc(-c3cccc(-c4cccc(C(=O)O)c4)c3)cs2)cc1OC [Example 29] 0.41

Next molecule: O=C(O)c1cc(-c2cccc(-c3nc(-c4cccnc4)cc(C(F)(F)F)n3)c2)ccc1F [Example 116] 0.32

Next molecule: N#Cc1cc(C2=Nc3ccc(C(F)(F)F)cc3NC(=O)C2)ccn1 [Example 184] -0.31

Next molecule: COc1ccc(-c2cccc(-c3nc(-c4ccco4)cc(C(F)(F)F)n3)c2)cc1C(=O)O [Example 90] 0.57

Next molecule: Cc1cc(-c2ccoc2)nc(-c2cccc(-c3cccc(C(=O)O)c3)c2)n1 [Example 119] -1.30

Next molecule: O=C(O)c1cc(-c2cccc(-c3nc(-c4cccs4)cc(C(F)(F)F)n3)c2)ccc1F [Example 87A] 0.05

Next molecule: Cc1cc2c(cc1C(F)(F)F)NC(=O)CC(c1cccc(Oc3ccccn3)c1)=N2 [Example 150] 0.45

Next molecule: O=C1CC(c2cccc(-c3cccnc3)c2)=Nc2ccc(Br)cc2N1 [Example 179] 0.44

Next molecule: Cc1cc(-c2ccoc2)nc(-c2cccc(-c3cc(F)cc(C(=O)O)c3)c2)n1 [Example 121] -0.46

Next molecule: Cc1ccccc1-c1cc(C(F)(F)F)nc(-c2cccc(-c3ccc(F)c(C(=O)O)c3)c2)n1 [Example 91] 0.18
